Where do the numbers come from? From the supplement of paper PMC11417369.

Test system: PF3D7_0420300 AP2 domain 1 (GST-tagged)
Assay: gcPBM binding intensity (ln(normalized median fluorescence intensity)); higher = stronger DNA binding
Over roughly 25,000 sequences, “ln(normalized median fluorescence intensity)” has its median near 9.3; the highest 2% begin near 10. This excerpt belongs to a sample that is enriched for the highest values.
Observable: gcPBM binding intensity (ln)
One number for each entry.

Past entries and their recorded results:
Sequence entry	gcPBM binding intensity (ln)
TAAATTTATAAATCACGTACATATTTATTTATATTT [XGTACX_site4532]	9.19
TATATATATATATATACACACACACCCATATATATA [CACACA_site8812]	9.94
TATCTCATAGTATACACACACACACGCGCACATATA [CACACA_site6917]	10.3
TATCTCATAGTATACACACACACACCCACCCATATA [CACACA_site1739]	10.4
ATTCATATGAAACACACACACACACCCATAAAAAAA [CACACA_site3246]	10.1
ATTTATGTTATATATACACACACAAAAGAAAAAAAA [CACACA_site8977]	9.82
TATATCTCATAGTATACACACACACCCACCCACATA [CACACA_site8513]	10.3
ATTCTACACCCACATACACACATATATATATATATA [CACACA_site3426]	9.84

Task: Return the recorded gcPBM binding intensity (ln) value; entry: TATATATATATATACACACACACACCCATATATATA [CACACA_site2538]
Output: 10

* * *

Tested on: PF3D7_0420300 AP2 domain 1 (GST-tagged)
Assay: gcPBM binding intensity (ln(normalized median fluorescence intensity)); higher = stronger DNA binding
Over roughly 25,000 sequences, “ln(normalized median fluorescence intensity)” has its median near 9.3; the highest 2% begin near 10. Many of the other results were omitted from the sample, so the highest values are more common in it than they were.
Observable: gcPBM binding intensity (ln)
Answers are plain numbers.

Reference set, count: 5
Sequence entry	gcPBM binding intensity (ln)
GCATACATCAAGCACACACACACACGCACACGCACA [CACACA_site6311]	10.3
AAATATTTTATACTTGCACACAAAATATATTAAAAT [CACACA_site8606]	9.32
TACATAAATACATACATACACACATATATATATATA [CACACA_site2105]	9.56
AAAAAAAAAAAACATACACACACATATATATATATA [CACACA_site8452]	9.9
TACACAAATATATACATACACACATATATACGCATA [CACACA_site394]	9.79

# map each sequence to its gcPBM binding intensity (ln)
1. AAGCATACATCAAGCACACACACACCCACACCCACA [CACACA_site372]
2. TTTATATAACAACAAAATGGAAATATATATGTATGT [TGCATGCA_negctrl_site98]
3. ATTATAAATATATTTTGTACTTAAAAGGAAAAAAAA [XGTACX_site55]
4. TTATATATAATATATACACACACATGTATATATAAA [CACACA_site8603]

Output:
1. 10.1
2. 9.53
3. 9.02
4. 9.45

* * *

Can you tell me gcPBM binding intensity (ln) for the items I'm about to list?
Test system: PF3D7_0420300 AP2 domain 1 (GST-tagged)
Assay: gcPBM binding intensity (ln(normalized median fluorescence intensity)); higher = stronger DNA binding
In all, about 25,000 sequences were measured (“ln(normalized median fluorescence intensity)”: median about 9.3, highest 2% from about 10 on). The full list was thinned out, with the highest values kept by preference.
Answers are plain numbers.

For each of the items listed, what is its gcPBM binding intensity (ln)?
1. ATAACAAAATAAAACACACACACAAATGTACAGATA [CACACA_site5358]
2. AATAATATATTTAGGGGTACATAATAATATATTTTA [XGTACX_site8366]
3. AAAAAAATAAGACACACACACAAAAAAATAAAAATA [CACACA_site6357]
4. AATATAAGAAAAATAACACACACATAAACATATATA [CACACA_site8899]
5. TATAAGAAAAATAACACACACATAAACATATATACA [CACACA_site2785]

Output:
1: 10.3; 2: 9.27; 3: 10.1; 4: 10.1; 5: 10.2
